Assay Remarks: Efflux clearance from middle ear fluid to plasma in Chinchilla lanigera assessed as unbound Km at 40000 ug/kg, iv followed by local dose of 13 ug/kg into intra-middle ear by compartmental microdialysis
Format: ADME, organism-based
Parameter: Km
Kindly format the answer as number then unit.

Query :: Look up Km for this molecule: "CC1(C)S[C@@H]2[C@H](NC(=O)[C@H](N)c3ccc(O)cc3)C(=O)N2[C@H]1C(=O)O"
Result :: 4.5 µg/mL

---

Assay Remarks: Efflux clearance from middle ear fluid to plasma in Chinchilla lanigera assessed as unbound Km at 40000 ug/kg, iv followed by local dose of […] into intra-middle ear by compartmental microdialysis
Format: ADME, organism-based
Parameter: Km

Query :: Look up Km for this compound: CC1(C)S[C@@H]2[C@H](NC(=O)[C@H](N)c3ccc(O)cc3)C(=O)N2[C@H]1C(=O)O [AMOXICILLIN]
Result :: 9.3 µg/mL

---

Assay Remarks: Terminal half life in Chinchilla lanigera at 15 mg/kg, iv
Assay type: ADME, organism-based
Parameters: dose 15 mg/kg, route intravenous
Measurement Setup: in vivo, read-out: beta t1/2 (converted)
Parameter: half-life (min)
The figure you give is taken to be in min; do not add the unit.

Query :: Look up half-life for this compound: CC1(C)S[C@@H]2[C@H](NC(=O)[C@H](N)c3ccc(O)cc3)C(=O)N2[C@H]1C(=O)O [AMOXICILLIN]
Result :: 18

---

Assay Remarks: Efflux clearance from middle ear fluid to plasma in Streptococcus pneumoniae WT3-infected Chinchilla lanigera assessed as unbound Km at 40000 ug/kg, iv followed by local dose of 19 ug/kg into intra-middle ear by compartmental microdialysis
Type: ADME, organism-based
Parameter: Km (µg/mL)
The figure you give is taken to be in µg/mL; do not add the unit.

Query :: Look up Km for this molecule: "CC1(C)S[C@@H]2[C@H](NC(=O)[C@H](N)c3ccc(O)cc3)C(=O)N2[C@H]1C(=O)O"
Result :: 35.9

---

Assay Remarks: Cmax in Chinchilla lanigera at 15 mg/kg, iv followed by local dose of 13 to 235 ug/kg into intra-middle ear
Type: ADME, organism-based
Design: dose 15 mg/kg, route intravenous
Measurement Setup: in vivo
Parameter: Cmax (µg/mL)
The figure you give is taken to be in µg/mL; do not add the unit.

Query :: Look up Cmax for this compound: "CC1(C)S[C@@H]2[C@H](NC(=O)[C@H](N)c3ccc(O)cc3)C(=O)N2[C@H]1C(=O)O"
Result :: 111

---

Assay Remarks: Efflux clearance from middle ear fluid to plasma in Chinchilla lanigera assessed as unbound Km at 15000 ug/kg, iv followed by local dose of 164 ug/kg into intra-middle ear by compartmental microdialysis
Type: ADME, organism-based
Parameter: Km (µg/mL)
The figure you give is taken to be in µg/mL; do not add the unit.

Query :: Look up Km for this compound: "CC1(C)S[C@@H]2[C@H](NC(=O)[C@H](N)c3ccc(O)cc3)C(=O)N2[C@H]1C(=O)O"
Result :: 17.8

---

Assay Remarks: Efflux clearance from middle ear fluid to plasma in Chinchilla lanigera assessed as unbound Km at 40000 ug/kg, iv followed by local dose of 19 ug/kg into intra-middle ear by compartmental microdialysis
Type: ADME, organism-based
Parameter: Km (µg/mL)
The figure you give is taken to be in µg/mL; do not add the unit.

Query :: Look up Km for this compound: CC1(C)S[C@@H]2[C@H](NC(=O)[C@H](N)c3ccc(O)cc3)C(=O)N2[C@H]1C(=O)O [AMOXICILLIN]
Result :: 34

---

Assay Remarks: Cmax in Chinchilla lanigera at 40 mg/kg, iv followed by local dose of 13 to 235 ug/kg into intra-middle ear
Format: ADME, organism-based
Design: dose 40 mg/kg, route intravenous
Measurement Setup: in vivo
Parameter: Cmax (ng/mL)
The figure you give is taken to be in ng/mL; do not add the unit.

Query :: Look up Cmax for this compound: "CC1(C)S[C@@H]2[C@H](NC(=O)[C@H](N)c3ccc(O)cc3)C(=O)N2[C@H]1C(=O)O"
Result :: 8800
